The reported measurements were obtained from patent US20200087363A1.

molecular target: T1, HLA-B*44:05 (human); assay: UV peptide exchange, anti-b2m ELISA
T1 construct: also called peptide-receptive MHC class I molecule
Quick reference: peptide exchange yield of the listed items.

Consider the worked cases shown below.
AEQEIMKKV = > 75%
AAEPLVGQRW = 20 to 50%
EEPKIDFRVY = 50 to 75%

I have this binder here, KEFYPVKEF , and I need its recorded peptide exchange yield.
20 to 50%

Please do the same for YERPTLVEL as well.
50 to 75%

Also EESLLSSWDF , if possible.
50 to 75%

And IEIKDRLQL ?
50 to 75%

Consider next the binder SEAGLTANQY in the same way.
50 to 75%
